target.system: T1, rat angiotensin 2 type 1 receptor (rat, UniProt P25095 1-359)
T1 sequence (looked up): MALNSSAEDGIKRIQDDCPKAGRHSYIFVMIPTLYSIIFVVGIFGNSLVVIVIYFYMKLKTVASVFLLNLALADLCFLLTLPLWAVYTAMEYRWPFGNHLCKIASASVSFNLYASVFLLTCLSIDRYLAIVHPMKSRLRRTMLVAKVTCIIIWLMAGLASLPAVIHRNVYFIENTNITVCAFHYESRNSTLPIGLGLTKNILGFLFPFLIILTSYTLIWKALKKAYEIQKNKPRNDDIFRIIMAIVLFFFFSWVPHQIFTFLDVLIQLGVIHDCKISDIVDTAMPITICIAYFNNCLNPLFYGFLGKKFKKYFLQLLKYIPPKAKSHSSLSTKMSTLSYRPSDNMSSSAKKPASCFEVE
method: cell-based or functional assay
Where no end group is shown, it is not given here. [ ]: non-standard residue; d: D form. Ac6c = NC1(C(=O)O)CCCCC1; cyHex = not defined here; cyPen = not defined here; Ac5c = NC1(C(=O)O)CCCC1; Sar = CNCC(=O)O
Items are presented alongside their recorded IP1 G-protein assay pEC50.

Worked set:
binder	IP1 G-protein assay pEC50
[Sar]RVY[Ac6c]HPH [SEQ ID NO: 37 (Sar-Arg-Val-Tyr-cyHex-His-Pro-His)]	< 9.2
[Sar]RVY[cyHex]HPA (reading uncertain; also: printed as Sar-Arg-Val-Tyr-cyHex-His-Pro-Ala) [SEQ ID NO: 2 (Sar-Arg-Val-Tyr-cyHex-His-Pro-Ala)]	> 9.2
[Sar]RVYPHPT [SEQ ID NO: 7 (Sar-Arg-Val-Tyr-Pro-His-Pro-Thr)]	> 9.2
[Sar]RVY[cyPen]HPA (reading uncertain; also: printed as Sar-Arg-Val-Tyr-cyPen-His-Pro-Ala) [SEQ ID NO: 3 (Sar-Arg-Val-Tyr-cyPen-His-Pro-Ala)]	> 9.2
[Sar]RVY[Ac5c]HPL [SEQ ID NO: 19 (Sar-Arg-Val-Tyr-cyPen-His-Pro-Leu)]	> 9.2

Turning to the following binder.
Please fill in: IP1 G-protein assay pEC50 reported for [Sar]RVYPHPF [SEQ ID NO: 10 (Sar-Arg-Val-Tyr-Pro-His-Pro-Phe)] = < 9.2
